Molecular target: TRPM2 (Mus musculus, UniProt Q91YD4)
Sequence (Q91YD4 whole entry): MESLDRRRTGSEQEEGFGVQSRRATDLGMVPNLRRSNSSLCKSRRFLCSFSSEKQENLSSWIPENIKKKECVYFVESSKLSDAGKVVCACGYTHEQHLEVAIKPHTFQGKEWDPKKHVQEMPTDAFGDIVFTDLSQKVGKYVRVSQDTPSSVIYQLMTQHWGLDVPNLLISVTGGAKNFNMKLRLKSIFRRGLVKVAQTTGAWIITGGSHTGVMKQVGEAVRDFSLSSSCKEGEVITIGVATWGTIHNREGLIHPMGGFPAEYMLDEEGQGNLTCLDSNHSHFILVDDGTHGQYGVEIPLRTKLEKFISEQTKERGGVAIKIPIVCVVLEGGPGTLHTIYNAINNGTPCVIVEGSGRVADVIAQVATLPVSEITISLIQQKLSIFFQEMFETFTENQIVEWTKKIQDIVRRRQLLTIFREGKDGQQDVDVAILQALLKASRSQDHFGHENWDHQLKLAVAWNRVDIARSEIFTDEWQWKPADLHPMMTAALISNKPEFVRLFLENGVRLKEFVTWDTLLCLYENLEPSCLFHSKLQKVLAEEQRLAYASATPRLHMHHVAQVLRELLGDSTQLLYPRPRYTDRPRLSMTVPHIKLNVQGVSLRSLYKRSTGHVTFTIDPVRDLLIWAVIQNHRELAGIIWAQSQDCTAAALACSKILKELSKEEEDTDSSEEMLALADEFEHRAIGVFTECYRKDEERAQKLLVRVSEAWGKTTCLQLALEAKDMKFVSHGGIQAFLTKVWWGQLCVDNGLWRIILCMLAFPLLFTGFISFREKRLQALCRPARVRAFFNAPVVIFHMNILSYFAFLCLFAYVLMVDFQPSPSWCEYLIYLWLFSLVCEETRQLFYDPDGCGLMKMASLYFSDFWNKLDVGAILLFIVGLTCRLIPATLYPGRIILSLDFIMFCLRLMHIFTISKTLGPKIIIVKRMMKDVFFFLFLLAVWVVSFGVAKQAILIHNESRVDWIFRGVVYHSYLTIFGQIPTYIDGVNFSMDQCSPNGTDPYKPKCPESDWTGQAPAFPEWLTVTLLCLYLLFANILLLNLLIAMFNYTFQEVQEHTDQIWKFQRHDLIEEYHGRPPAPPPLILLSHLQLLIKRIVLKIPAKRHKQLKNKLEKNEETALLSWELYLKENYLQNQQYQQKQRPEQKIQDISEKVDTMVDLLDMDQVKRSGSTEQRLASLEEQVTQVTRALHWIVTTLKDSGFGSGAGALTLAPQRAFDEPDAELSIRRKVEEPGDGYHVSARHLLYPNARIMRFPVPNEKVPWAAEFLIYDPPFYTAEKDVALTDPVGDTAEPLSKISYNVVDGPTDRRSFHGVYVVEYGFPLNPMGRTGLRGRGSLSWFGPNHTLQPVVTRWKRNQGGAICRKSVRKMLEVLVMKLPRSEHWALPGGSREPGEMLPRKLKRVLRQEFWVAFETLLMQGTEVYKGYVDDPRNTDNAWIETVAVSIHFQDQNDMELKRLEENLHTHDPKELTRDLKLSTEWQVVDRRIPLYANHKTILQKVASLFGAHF
Assay: whole-cell patch clamp with intracellular ADPR
Measure: EC50 (µM)
Report only the number, with the unit µM understood.

Query string: Given the entry Nc1ncnc2c1ncn2[C@@H]1O[C@H](COP(=O)(O)OP(=O)(O)OC[C@H]2OC(O)[C@H](O)[C@@H]2O)[C@@H](O)[C@H]1O (stereo partly shown) , report its measured EC50.
Result string: 360
